The reported measurements were obtained from paper PMC6611794.

- CONDITIONS: read-out: EC50 PC/PG/2 2nd; PC/PG/2 LUVs, 2nd experiment
Where a SMILES comes first, the peptide text is derived from it. Bridges are numbered along the chain shown (N, C = ends). [ ]: non-standard residue; d: D form. The star is where a group is joined. Hexanoyl(3R-OH,5-Me) = CC(C)C[C@@H](O)CC(=O)*; dNMeF = CN[C@H](Cc1ccccc1)C(=O)O; dOrn = NCCC[C@@H](N)C(=O)O
Could you please report measured pEC50 for the items listed next?
The scale used: pEC50 is minus the common logarithm of the concentration in molar units.

Lookup result for CC[C@H](C)[C@@H]1NC(=O)[C@@H](Cc2c[nH]c3ccccc23)NC(=O)[C@@H](CCCN)NC(=O)[C@H](CCC(=O)O)NC(=O)[C@@H](CCCNC(=N)N)NC(=O)[C@H](CC(C)C)NC(=O)[C@@H](Cc2ccccc2)N(C)C(=O)CNC(=O)[C@H](Cc2ccc(O)cc2)NC(=O)[C@@H](CCCNC(=N)N)NC(=O)[C@@H](NC(=O)C[C@H](O)CC(C)C)[C@@H](C)OC(=O)[C@H]([C@@H](C)O)NC1=O [Peptide A7] ({Hexanoyl(3R-OH,5-Me)}-T[dR]YG[dNMeF]L[dR]E[dOrn][dW]IT; ester 1-C) ; measured pEC50: 7.56

Lookup result for CC[C@H](C)[C@@H]1NC(=O)[C@@H](Cc2c[nH]c3ccccc23)NC(=O)[C@@H](CCCN)NC(=O)[C@H](CCC(=O)O)NC(=O)[C@@H](CCCNC(=N)N)NC(=O)[C@H](CC(C)C)NC(=O)[C@@H](Cc2ccccc2)N(C)C(=O)CNC(=O)[C@H](CC(=O)O)NC(=O)[C@@H](CCCNC(=N)N)NC(=O)[C@@H](NC(=O)C[C@H](O)CC(C)C)[C@@H](C)OC(=O)[C@H]([C@@H](C)O)NC1=O [Peptide A16] ({Hexanoyl(3R-OH,5-Me)}-T[dR]DG[dNMeF]L[dR]E[dOrn][dW]IT; ester 1-C) ; measured pEC50: 7.47

Lookup result for CC[C@H](C)[C@@H]1NC(=O)[C@@H](Cc2c[nH]c3ccccc23)NC(=O)[C@@H](CCC(N)=O)NC(=O)[C@H](CCC(=O)O)NC(=O)[C@@H](CCCNC(=N)N)NC(=O)[C@H](CC(C)C)NC(=O)[C@@H](Cc2ccccc2)N(C)C(=O)CNC(=O)[C@H](C)NC(=O)[C@@H](CCCNC(=N)N)NC(=O)[C@@H](NC(=O)C[C@H](O)CC(C)C)[C@@H](C)OC(=O)[C@H]([C@@H](C)O)NC1=O [Peptide A1] ({Hexanoyl(3R-OH,5-Me)}-T[dR]AG[dNMeF]L[dR]E[dQ][dW]IT; ester 1-C) ; measured pEC50: 8.33

Lookup result for CC[C@H](C)[C@@H]1NC(=O)[C@@H](Cc2c[nH]c3ccccc23)NC(=O)[C@@H](Cc2ccc(O)cc2)NC(=O)[C@H](CCC(=O)O)NC(=O)[C@@H](CCCNC(=N)N)NC(=O)[C@H](CC(C)C)NC(=O)[C@@H](Cc2ccccc2)N(C)C(=O)CNC(=O)[C@H](CC(=O)O)NC(=O)[C@@H](CCCNC(=N)N)NC(=O)[C@@H](NC(=O)C[C@H](O)CC(C)C)[C@@H](C)OC(=O)[C@H]([C@@H](C)O)NC1=O [Peptide A17] ({Hexanoyl(3R-OH,5-Me)}-T[dR]DG[dNMeF]L[dR]E[dY][dW]IT; ester 1-C) ; measured pEC50: 6.75
